- Tested on: HepG2 cells
- assay_procedure: HepG2 cytotoxicity counter-screen
- particulars: mean of the HepG2 TOX50 values
quantity_name: Mean TOX (µM)
// return numeric value only (unit: µM, not printed)

Problem: Respond only with Mean TOX recorded for Cc1sc2ncnc(Sc3nnc(N)s3)c2c1C [TC60]
Result: 42.45

Problem: Respond only with Mean TOX recorded for CN1CCN(c2ccc(Nc3ncc(C#N)c(Nc4ccccc4C(N)=O)n3)cc2)CC1.Cl [TC49]
Result: 3.07

Problem: Respond only with Mean TOX recorded for Cc1ccc(-n2c(Sc3ncnc4sccc34)nnc2N2CCCC2)cc1 [TC46]
Result: 78.79

====

- System: P. falciparum female gametocytes
- assay_procedure: P. falciparum Dual Gamete Formation Assay (PfDGFA), female readout (Pfs25-positive female gametes)
- Assay type: cell-based, Plasmodium falciparum NF54
- particulars: Plasmodium falciparum; PfDGFA, 24 h incubation with gametocytes before induction, female gamete readout; read-out: Female IC50
pIC50: −log10 of the molar value.
quantity_name: pIC50

Problem: Respond only with pIC50 recorded for "COc1ccc(Nc2ncc(C#N)c(Nc3ccccc3C(N)=O)n2)cc1N1CCN(C)CC1.Cl"
Result: < 5.00

Problem: Respond only with pIC50 recorded for "CCS(=O)(=O)Nc1ccc2c(c1)/C(=C(/Nc1ccc(CN3CCCCC3)cc1)c1ccccc1)C(=O)N2"
Result: < 5.00

Problem: Respond only with pIC50 recorded for "Cc1cc(Nc2ccncc2)n2nc(C)c(-c3ccc(Cl)cc3)c2n1"
Result: < 5.00

Problem: Respond only with pIC50 recorded for "COCCN(C)CCCOc1cc2c(cc1OC)ncn2-c1cc(OCc2ccccc2C(F)(F)F)c(C(N)=O)s1.Cl"
Result: < 5.00

Problem: Respond only with pIC50 recorded for "CCN(CC)CCOc1ccc(Nc2ncc3cc(-c4c(Cl)cccc4Cl)c(=O)n(C)c3n2)cc1"
Result: < 5.00

Problem: Respond only with pIC50 recorded for "CNC(=O)c1cnc(Nc2ccc(N3CCN(C)CC3)cc2)nc1Nc1ccccc1OC.O=C(O)C(F)(F)F"
Result: < 5.00

Problem: Respond only with pIC50 recorded for COc1ccc2nc(N=C3NC4(c5ccccc5)NC(=Nc5nc6ccc(OC)cc6[nH]5)NC4(c4ccccc4)N3)[nH]c2c1.O=C(O)C(F)(F)F (stereo not shown)
Result: 5.23

Problem: Respond only with pIC50 recorded for "CN1CCN(c2ccc(Nc3ncc(Cl)c(Nc4cccnc4C(N)=O)n3)cc2)CC1.Cl"
Result: 5.26

Problem: Respond only with pIC50 recorded for "CCCCNS(=O)(=O)c1ccc(NC(=O)c2cc([N+](=O)[O-])ccc2Cl)cc1"
Result: 5.12

Problem: Respond only with pIC50 recorded for "C#C[C@H]1O[C@@H](n2cnc3c(Nc4cc(Br)cc(C(F)(F)F)c4)ncnc32)[C@H](O)[C@@H]1O"
Result: < 5.00
